assay: Rodent pharmacokinetic study; format: in vivo; settings: Wistar, plasma; Wister rat/Male, 5 mg/kg, Intravenous
Reported Metric: Tmax (min)

1) CNCC1CC2CC2N1c1ccc(C(F)(F)F)nc1.O=C(O)/C=C/C(=O)O (centres unmarked) [Example 23]	4.8
2) CN(C)CC1CC2CC2N1c1cncc(Br)c1.Cl (centres unmarked) [Example 1]	8.4
3) NCC1CC2CC2N1c1cncnc1.O=C(O)/C=C/C(=O)O (centres unmarked) [Example 22]	15
4) NCC1CC2CC2N1C(=O)c1ccco1.O=C(O)C(O)C(O)C(=O)O (centres unmarked) [Example 35]	4.8
5) CNCC1CC2CC2N1c1cncnc1.O=C(O)/C=C/C(=O)O (centres unmarked) [Example 21]	4.8

----------
Readings of Cmax for the listed molecules
experiment: Rodent pharmacokinetic study; assay type: in vivo; details: Wistar, plasma; Wister rat/Male, 5 mg/kg, Intravenous
Reported Metric: Cmax (µg/mL)

1) CNCC1CC2CC2N1c1cncnc1.O=C(O)/C=C/C(=O)O (centres unmarked)	1.57
2) NCC1CC2CC2N1c1cncnc1.O=C(O)/C=C/C(=O)O (centres unmarked)	1.38
3) CNCC1CC2CC2N1c1ccc(C(F)(F)F)nc1.O=C(O)/C=C/C(=O)O (centres unmarked)	3.64
4) CN(C)CC1CC2CC2N1c1cncc(Br)c1.Cl (centres unmarked)	1.94
5) NCC1CC2CC2N1C(=O)c1ccco1.O=C(O)C(O)C(O)C(=O)O (centres unmarked)	1.78

----------
Target: Nicotinic Acetylcholine α4β2 Receptor (UniProt P09483+P12390)
Experiment: Binding assay for human or rat nicotinic acetylcholine α4β2 receptor ([3H]Cytisine displacement)
Settings: [3H]Cytisine 2.5 nM; rat brain frontal cortex or recombinant human receptor in CHO cells (not specified which); read-out: Ki
Experimental: Binding Assay for Human or Rat Nicotinic Acetylcholine α4β2 Receptor […] Increasing concentrations of test compounds or standard were incubated with membrane receptors and radioligand in 120 mM NaCl, 2.5 mM KCl, 1 mM CaCl2, 1 mM MgCl2 and 50 mM TRIS-HCl (pH 7.4) for 60 minutes at room temperature. […] Radioactivity trapped onto the filters was determined and compared to the control values in order to ascertain any interactions of the test compound(s) with either cloned human or rat receptor binding site. […]
Where a name gives a salt, the structure may show the parent alone.
Reported Metric: Ki (nM)

1. Cc1cncc(N2C(CN)CC3CC32)c1 (stereo not drawn) [Example 26, fumarate]	5.7
2. CNCC1CC2CC2N1c1nccnc1O (stereo not drawn) [Example 20]	13
3. CNCC1CC2CC2N1c1cnc2ccccc2c1 (stereo not drawn) [Example 31, fumarate]	1650

----------
assay: Rodent pharmacokinetic study; type: in vivo; details: Wistar, plasma; Wister rat/Male, 5 mg/kg Per-Oral vs 5 mg/kg Intravenous
Entries and their measured bioavailability follow.
Reported Metric: bioavailability (%)

1. NCC1CC2CC2N1c1cncnc1.O=C(O)/C=C/C(=O)O (stereo not shown)	89
2. CNCC1CC2CC2N1c1cncnc1.O=C(O)/C=C/C(=O)O (stereo not shown)	101
3. CNCC1CC2CC2N1c1ccc(C(F)(F)F)nc1.O=C(O)/C=C/C(=O)O (stereo not shown)	67
4. NCC1CC2CC2N1C(=O)c1ccco1.O=C(O)C(O)C(O)C(=O)O (stereo not shown)	92

----------
experiment: Rodent pharmacokinetic study; type: in vivo; conditions: Wistar, plasma; Wister rat/Male, 5 mg/kg, Per-Oral
# AUC(0-t) per record follows
Reported Metric: AUC(0-t) (ng·h/mL)

1. CNCC1CC2CC2N1c1ccc(C(F)(F)F)nc1.O=C(O)/C=C/C(=O)O (stereo not shown)	12000
2. CNCC1CC2CC2N1c1cncnc1.O=C(O)/C=C/C(=O)O (stereo not shown)	1970
3. NCC1CC2CC2N1c1cncnc1.O=C(O)/C=C/C(=O)O (stereo not shown)	2020
4. NCC1CC2CC2N1C(=O)c1ccco1.O=C(O)C(O)C(O)C(=O)O (stereo not shown)	1310
